Experiment: Thermodynamic aqueous solubility
Assay type: physicochemical
Conditions: water, 25 °C, pH 4, aqueous buffer, thermodynamic from solid, pH 4; 25° C., 24 hours; read-out: Conc. Found (solubility in aqueous solution)

compound | solubility at 24 h [µg/mL]
C=CC(=O)N1CCC[C@@H](n2nc(-c3ccc(Oc4ccccc4)cc3)c3c(N)ncnc32)C1 [Form A] | 22

---

Assay: Thermodynamic aqueous solubility
Format: physicochemical
Conditions: water, 25 °C, pH 1.95, simulated gastric fluid, thermodynamic from solid, pH 1.95; 25° C., 24 hours; read-out: Conc. Found (solubility in aqueous solution)
assayEndpoint: solubility at 24 h (µg/mL)

compound | measurementUnit | measured
C=CC(=O)N1CCC[C@@H](n2nc(-c3ccc(Oc4ccccc4)cc3)c3c(N)ncnc32)C1 [Form A] | µg/mL | 820
